# TARGET_OR_TEST_SYSTEM: T1, human CACNG1 expressed on cells (human, UniProt Q06432 1-222)
# T1 construct: also called hCACNG1; HEK293/hCACNG1
# T1 sequence (Q06432 whole entry): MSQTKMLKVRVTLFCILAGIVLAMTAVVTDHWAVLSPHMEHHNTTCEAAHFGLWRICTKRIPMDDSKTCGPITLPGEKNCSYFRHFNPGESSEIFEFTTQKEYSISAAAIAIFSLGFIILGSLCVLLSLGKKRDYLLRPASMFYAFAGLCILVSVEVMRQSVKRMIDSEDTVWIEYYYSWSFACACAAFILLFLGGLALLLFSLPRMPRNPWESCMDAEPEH
# ASSAY_INFO: imaging cell binding, HuSKM myotubes
In this section we review reported S/N values for a set of binders.
EXPERIMENTAL_ENDPOINT: S/N (fold)

>  <BINDER>
H2aM31944N (antibody, mouse IgG2a, kappa, V domains shown, mIgG2a; also called CACNG1 mIgG2a antibody) VH: QVQLVESGGGVVQPGRSLRLSCEASGITFRNYGMHWVRQAPGKGLEWVAVMWYDGSNKYYADSVKGRFTISRDNSKNTVYLQMNSLRAEDTAVYYCARRGHIATAAPFDYWGQGTLVTVSS VL: DIQMTQSPSSLSASVGDRVTISCRASQSISSYLNWYQQKPGKAPKVLMYAASSLQSGVPSRFSGSGSGTDFTLTISSLQPEDFATYYCQQSYSTPPITFGQGTRLEIKR

>  <NUMBER>
321

$$$$
>  <BINDER>
REGN9909 (antibody, mouse IgG2a, kappa, V domains shown, mIgG2a) VH: EVQLLESGGGLVQPGGSLRLSCAASGFTFNNYGMSWVRQGPGKGLEWVSSISGSGGTTFYADSVKGRFTISRDNSKNTLYLQMNSLRAEDTAVYYCGKGGYCSSSGCRHYGMDVWGQGTTVTVSS VL: QSVLTQPPSASGTPGQRVTISCSGSSSNIGNNYIYWYQRLPGTTPKLLIYRNNQRPSGVPDRFSGSKSGTSASLAISGLRSEDEADYYCAAWDDTLSGYVFGTGTKVTVLR

>  <NUMBER>
141

$$$$
>  <BINDER>
REGN9908 (antibody, mouse IgG2b, V domains shown, mIgG2b) VH: EVQLLESGGGLAQPGGSLRLSCAASGFTFSSYAMSWVRQAPGKGLEWVSSVSGSGGTTYYAASVKGRFTVSRDNSKKTLYLQMNSLRAEDTAVYYCGKGGYCSSSGCRHYGMDVWGQGTTVTVSA VL: QSVLTQPPSASGTPGQRVAISCSGSNSNIGNNYLYWYQQIPGTTPKLLIYRNNQRPSGVPDRFSASKSGTSASLAISGLRSGDEADYYCAAWDDSLSGYVFGTGTKVTVLG

>  <NUMBER>
164

$$$$
